In this section we review reported melting point values for a set of compounds.

Reference set (2 entries):
O=C1N(CCCC(F)(F)F)c2ccccc2C1(O)c1ccc2c(c1)OCO2 (stereo not drawn) ... 119 to 121 °C
O=C1N(Cc2cccc3ccccc23)c2ccccc2C1(O)c1ccc2c(c1)OCO2 (stereo not drawn) ... 93 to 95 °C

# input for lookup
Report melting point for O=C(CC1(O)C(=O)N(Cc2ccc(Cl)cc2)c2ccccc21)c1cc2ccccc2o1 (stereo not drawn) please.
185 °C (dec.)
